// cytotoxicity at 10 µM lookup, one value per entry
Assay: Toxicity liver stage against HepG2, at 10uM
Format: cell-based
Set-up: test concentration 10 uM, cell line HepG2-A16-CD81EGFP
Conditions: human, HepG2-A16-CD81EGFP cells; read-out: INHIBITION
Number first, unit second: that is the form wanted.

What measured cytotoxicity at 10 µM goes with O=C(c1cc(Cl)c2c(c1)OCO2)N1CCN(c2ccccn2)CC1 ? -2.67%

Now the same for CN(C)C(=O)N1Cc2nnn(CC3CC3)c2C(COCC2CC2)C1 (stereo unspecified) 8.26%

Repeat with O=C(NCc1cccc2cccnc12)N1CCC(n2cncn2)CC1 0.722%

What do we get for c1cc(CNCC2OCCc3cn(CC4CCOCC4)nc32)ccn1 (stereo unspecified) ? 3.68%

---

Assay: Toxicity liver stage against HepG2, at 10uM
Type: cell-based
Parameters: test concentration 10 uM, cell line HepG2-A16-CD81EGFP
Details: human, HepG2-A16-CD81EGFP cells; read-out: INHIBITION
Listed next: entries and their corresponding cytotoxicity at 10 µM.
Provide only the numeric value, understood in %.

Examples from the recorded data:
{"molecule": "Cc1csc(CNC(=O)NCC(O)c2ccc(F)c(F)c2)n1 (configuration not stated)", "measureUnit": "%", "experimentalResult": 2.51}
{"molecule": "CCc1nnc2n1CCN(Cc1ncc(-c3ccc(F)cc3)o1)C2", "measureUnit": "%", "experimentalResult": -9.42}
{"molecule": "CCNc1c(NC(=O)NC(C)C)c(=O)oc2ccccc12", "measureUnit": "%", "experimentalResult": 1.1}
{"molecule": "COc1ccc(OC)c(Sc2ncccc2C(=O)NCCSC)c1", "measureUnit": "%", "experimentalResult": 20.7}
{"molecule": "CCc1cccc2cc(CN)c(=O)[nH]c12", "measureUnit": "%", "experimentalResult": 3.54}
{"molecule": "COCC(=O)NCCSCCOc1cccc(Br)c1", "measureUnit": "%", "experimentalResult": -9.2}
{"molecule": "O=C(Nc1nccs1)NC1CCOc2ccccc21 (configuration not stated)", "measureUnit": "%", "experimentalResult": 6.78}
{"molecule": "Cc1ccc(-c2nc(CN3CCn4c(nnc4C4CC4)C3)co2)c(C)c1", "measureUnit": "%", "experimentalResult": -24.7}
{"molecule": "Cc1nccc(C(=O)N2CCOC(c3nc(C(C)C)n[nH]3)C2)n1 (configuration not stated)", "measureUnit": "%", "experimentalResult": -15.7}
{"molecule": "NC(=O)N1CCC2(CC1)CC(=O)N(CC1CCCO1)c1ccccc12 (configuration not stated)", "measureUnit": "%", "experimentalResult": 5.56}

Fill in the blank: the reported cytotoxicity at 10 µM of COCCCNC(=O)CN1CCC(c2ccccc2)C1 (configuration not stated) is ____. 20.3

# iterate: CNS(=O)(=O)CCCN1CCCC1c1noc(C)n1 (configuration not stated) -4.38

---

Test: Toxicity liver stage against HepG2, at 10uM
Format: cell-based
Design: test concentration 10 uM, cell line HepG2-A16-CD81EGFP
Settings: human, HepG2-A16-CD81EGFP cells; read-out: INHIBITION
Each entry below lists one item and its recorded cytotoxicity at 10 µM value.
Give the value; after it, write the unit.

Look over these answered cases.
{"compound": "O=C(NC1CCC1)[C@H]1C[C@@H]2[C@@H](C1)OCCN2CC1CC1", "cytotoxicity at 10 µM": "-2.17%"}
{"compound": "Cc1ccc(CNCC2Cn3nnc(-c4cccc(F)c4)c3CO2)o1 (stereo unspecified)", "cytotoxicity at 10 µM": "-0.617%"}
{"compound": "COc1ccc(-c2nnc(SC(C)C(N)=O)[nH]2)c(OC)c1 (stereo unspecified)", "cytotoxicity at 10 µM": "-15%"}
{"compound": "CCC(C)(C)n1nnnc1C(c1cccs1)N1CCCCC1 (stereo unspecified)", "cytotoxicity at 10 µM": "2.09%"}
{"compound": "Cc1cncnc1C1CCN(C(=O)C2(C)CCCCN2C)CC1 (stereo unspecified)", "cytotoxicity at 10 µM": "1.06%"}

I'd like to know its cytotoxicity at 10 µM. The compound in question is Cn1nc(C(=O)NCc2cccc(Cn3ccnc3)c2)ccc1=O 8.53%

Same question, Cc1cc(O)cc(=O)n1CCCC(=O)Nc1n[nH]c2cc(Br)ccc12 this time -16.2%

Now try Cc1ncc(CN(C)CC(O)c2ccc(OC(F)(F)F)cc2)s1 (stereo unspecified) . 9.99%

---

Assay: Toxicity liver stage against HepG2, at 10uM
Assay type: cell-based
Set-up: test concentration 10 uM, cell line HepG2-A16-CD81EGFP
Conditions: human, HepG2-A16-CD81EGFP cells; read-out: INHIBITION
measurementName: cytotoxicity at 10 µM (%)
Enter your answer as a number in %; do not include the unit.

In the examples that follow, each entry is paired with its recorded cytotoxicity at 10 µM.
{"molecule": "Cc1ccc(-n2nnc(C(=O)NCCS(N)(=O)=O)c2C2CC2)cc1", "experimentalResult": -5.21}
{"molecule": "Cc1nnc(NC(=O)c2c3c(nn2C2CCS(=O)(=O)C2)CCC3)s1 (stereo unspecified)", "experimentalResult": -14.2}
{"molecule": "CNc1ncc(C(=O)N2CCC(CCc3ccccc3)CC2)cn1", "experimentalResult": 13.1}

Please give the measured cytotoxicity at 10 µM for this molecule: COc1ccc(C)cc1C(=O)N1C[C@@H](CN(C)CCO)[C@@H](CO)C1 -0.828

Then COc1cc(CNc2cnn(C)c2)cc2c1OCCO2 ? -10.8

Same lookup for CN(CC1CCOC1)S(=O)(=O)c1cccc(C(=O)N2CCOCC2)c1 (stereo unspecified) , please. -13.3

---

Assay: Toxicity liver stage against HepG2, at 10uM
Assay type: cell-based
Design: test concentration 10 uM, cell line HepG2-A16-CD81EGFP
Conditions: human, HepG2-A16-CD81EGFP cells; read-out: INHIBITION
measurementName: cytotoxicity at 10 µM
Please state the value followed by its unit.

Can you share its cytotoxicity at 10 µM? I mean this compound: Cc1noc(-c2ccc(N3CCC[C@H]3CO)nc2)n1 1.48%

Same thing, different compound: CCN(CC)CCSc1ncnc2[nH]ncc12 -4.44%

Another: Cc1ccc(OCCCNC(=O)CN(C)c2ccc(C#N)cn2)cc1 4.01%

Next compound up: CNC(=O)Cc1ccc(NC(=O)NC(C)C(C)C)cc1 (configuration not stated) -4.69%

And for Cc1nc(CN2CCCCC2Cn2cncn2)nc2ccccc12 (configuration not stated) ? -3.46%

Continue with COc1c(CNC(c2cccc(F)c2)c2nccn2C)c(C)nn1C (configuration not stated) -9.19%

Entry COc1cccc(CC2CN(C3CCC3)CCO2)c1 (configuration not stated) please 0.388%

Quick one: O=C(NCCN1CCOCC1)c1nc(-c2ccc3[nH]ccc3c2)no1 -7.53%

And then COc1ncccc1CN1CCC2(CCCN2S(C)(=O)=O)CC1 , what is it? 8.86%

// repeat for Cc1ccc2nc(C)cc(NCCNS(=O)(=O)c3cccnc3)c2c1 and report 13.5%

Quick one: CCS(=O)(=O)CCN1CCC(N(C)Cc2ncc(C)o2)C1 (configuration not stated) 1.75%

What about N[C@@H]1CCCN(C(=O)Cc2c[nH]c3ccccc23)[C@H]1c1ccccc1F ? 7.45%

---

Experiment: Toxicity liver stage against HepG2, at 10uM
Type: cell-based
Set-up: test concentration 10 uM, cell line HepG2-A16-CD81EGFP
Conditions: human, HepG2-A16-CD81EGFP cells; read-out: INHIBITION
cytotoxicity at 10 µM: recorded values
Enter your answer as a number in %; do not include the unit.

Answered examples (5):
{"molecule": "O=C(NCCc1cccs1)[C@]12COC[C@H]1CN(c1ncccn1)C2", "cytotoxicity at 10 µM (%)": -109}
{"molecule": "COCCN1CCCC2(CCN(c3nc(C)nc4ccsc34)C2)C1=O (stereo unspecified)", "cytotoxicity at 10 µM (%)": 10.7}
{"molecule": "O=C(c1ccccc1)N1CCC[C@]2(C[C@@H](Oc3ncccc3F)CO2)C1", "cytotoxicity at 10 µM (%)": -1.78}
{"molecule": "Cc1c(C)n(Cc2ccccn2)c2nc3c(c(N)c12)CCCCC3", "cytotoxicity at 10 µM (%)": 3.3}
{"molecule": "CCn1cnnc1CNC(=O)C1CCCN(Cc2cccc(F)c2)C1 (stereo unspecified)", "cytotoxicity at 10 µM (%)": 3.5}

Please examine the following record next.
I am curious: what cytotoxicity at 10 µM value has been reported for CCNC(=O)C1CCCN(Cn2nc(C(C)(C)C)ccc2=O)C1 (stereo unspecified) ? 10.1

---

Item-by-item account of cytotoxicity at 10 µM
Test: Toxicity liver stage against HepG2, at 10uM
Format: cell-based
Set-up: test concentration 10 uM, cell line HepG2-A16-CD81EGFP
Settings: human, HepG2-A16-CD81EGFP cells; read-out: INHIBITION
Entry rule: numbers only, all in %.

Example entries and their recorded answers appear below.
{"compound": "Cn1cc(CN2CCCn3cnc(CN4CCCC4=O)c3C2)cn1", "cytotoxicity at 10 µM (%)": -1.39}
{"compound": "CCSC1=Nc2c(cnn2-c2ccc(Cl)cc2)C2=NCCCN12", "cytotoxicity at 10 µM (%)": 8.49}
{"compound": "CC(C)(C)OC(=O)NCC1CCN(C(=O)c2cc(Cl)c[nH]2)CC1", "cytotoxicity at 10 µM (%)": -3.26}
{"compound": "CCc1nc(CNC2CCCc3c2cnn3CC)cs1 (centres undefined)", "cytotoxicity at 10 µM (%)": 5.12}
{"compound": "Cn1cc2ncn(CCCOc3cccnc3)c(=O)c2n1", "cytotoxicity at 10 µM (%)": -5.18}

Look up cytotoxicity at 10 µM for this compound: CC(=O)Nc1ncc(S(=O)(=O)N2CCCC(C)C2)s1 (centres undefined) 2.28

Repeat for the following compound: Cc1nc2c(c(C)c1CC(=O)NC(C)c1ccccc1)c(=O)[nH]n2C (centres undefined) -3.44

Cc1nc(C)n(CC2CCCN(CCc3ccccc3)C2)n1 (centres undefined) , same question. -3.12

Next record, please: O=C(Nc1cccc(OCc2ccc(F)cc2)c1)C1COCCO1 (centres undefined) 1.18

Try the compound O=C(NCc1ccc(Cl)cc1)C1=NOC2(CCNC2)C1 (centres undefined) -4.21

Another compound to look at: N#Cc1ccnc(N2CCN(C(=O)NC3CCS(=O)(=O)C3)CC2)c1 (centres undefined) -6.83

Entry Cn1nc(C#N)c2c1CN(C(=O)c1cccnc1)CCC2 please 2.22

Next compound up: CCOC(=O)CN1CCC(C(=O)c2cc(F)ccc2F)CC1 -8.11

Try this compound too: CCOC(=O)N1CCN(c2nc(N)c3ccccc3n2)CC1 -5.52

Next compound up: CCc1ccc(CN2CCN(Cc3ncc[nH]3)[C@H]3CS(=O)(=O)C[C@H]32)nc1 -0.235

And the next one, COc1ccc(Br)cc1CN(C)C(C)c1nc(C)no1 (centres undefined) ? -4.02

Try this compound too: CC(C)c1n[nH]c(C2CN(CCCS(C)(=O)=O)CCO2)n1 (centres undefined) -11.9

Next compound: CCn1ncc(CN2CCCC(n3c(=O)oc4ccccc43)C2)c1C (centres undefined) 1.83

Same read-out for Cc1ccsc1[C@@H]1CCN(C(=O)CCc2n[nH]c(C)c2C)C[C@H]1O ? 7.04
